Biological target: E3 ubiquitin-protein ligase TRIM33 (Homo sapiens)
Sequence (Q9UPN9 whole entry): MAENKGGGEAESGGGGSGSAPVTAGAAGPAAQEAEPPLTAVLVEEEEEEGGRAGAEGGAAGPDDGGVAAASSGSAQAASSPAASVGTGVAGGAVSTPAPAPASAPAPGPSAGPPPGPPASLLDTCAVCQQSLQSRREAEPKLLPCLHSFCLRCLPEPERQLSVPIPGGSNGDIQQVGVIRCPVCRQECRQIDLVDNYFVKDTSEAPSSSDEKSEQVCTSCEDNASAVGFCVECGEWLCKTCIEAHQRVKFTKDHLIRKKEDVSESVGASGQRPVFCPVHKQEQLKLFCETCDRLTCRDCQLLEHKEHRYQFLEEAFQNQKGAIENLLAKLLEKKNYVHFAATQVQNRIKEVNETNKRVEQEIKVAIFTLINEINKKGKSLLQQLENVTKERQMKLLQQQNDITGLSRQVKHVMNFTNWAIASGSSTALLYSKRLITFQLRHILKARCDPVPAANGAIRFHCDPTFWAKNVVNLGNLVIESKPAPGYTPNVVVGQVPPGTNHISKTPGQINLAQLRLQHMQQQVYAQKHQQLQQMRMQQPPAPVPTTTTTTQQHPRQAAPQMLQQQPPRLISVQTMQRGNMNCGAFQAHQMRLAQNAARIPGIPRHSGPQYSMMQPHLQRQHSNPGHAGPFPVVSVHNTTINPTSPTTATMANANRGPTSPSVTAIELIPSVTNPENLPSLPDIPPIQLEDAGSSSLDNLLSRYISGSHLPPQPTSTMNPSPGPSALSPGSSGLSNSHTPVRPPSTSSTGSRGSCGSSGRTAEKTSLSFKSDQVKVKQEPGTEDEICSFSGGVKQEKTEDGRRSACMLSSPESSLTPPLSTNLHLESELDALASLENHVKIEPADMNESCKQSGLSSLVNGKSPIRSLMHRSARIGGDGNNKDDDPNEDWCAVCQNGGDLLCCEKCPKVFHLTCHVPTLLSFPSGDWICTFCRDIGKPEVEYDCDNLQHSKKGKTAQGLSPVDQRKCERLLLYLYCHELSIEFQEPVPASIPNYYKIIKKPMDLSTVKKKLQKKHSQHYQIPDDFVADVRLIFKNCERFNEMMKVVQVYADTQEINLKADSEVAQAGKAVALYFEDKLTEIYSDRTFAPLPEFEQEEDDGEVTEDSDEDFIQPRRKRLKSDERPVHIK
Assay: Inhibition of recombinant TRIM33 PHD bromodomain (unknown origin) using biotinylated H3 peptide (H3K9me3K18ac) by AlphaScreen assay
OBSERVATION_TYPE: pIC50
pIC50 (log units): -log10 of the concentration in mol/L.

Study these solved cases before continuing.
# SMILES, pIC50
records = [
    ("COCCNc1c(-c2c[nH]c(C)n2)nc2ccc(Br)cn12", 5.10),
    ("COCCNc1c(-c2ccc3nccn3c2)nc2ccc(Br)cn12", 3.81),
    ("CCCOc1ccn2c(C(C)=O)cc(-c3nc4ccc(C(=O)OC)cn4c3NCCN3CCOCC3)c2c1", 4.02),
]

Incoming: Under E3 ubiquitin-protein ligase TRIM33 (Homo sapiens): pIC50 value of Cc1nc(-c2nc3ccccn3c2NC2CCCCC2)c[nH]1 ?
Outgoing: 5.23

Incoming: Under E3 ubiquitin-protein ligase TRIM33 (Homo sapiens): pIC50 value of Cc1nc(-c2nc3ccc(Br)cn3c2NC2CCCCC2)c[nH]1 ?
Outgoing: 5.44

Incoming: Under E3 ubiquitin-protein ligase TRIM33 (Homo sapiens): pIC50 value of O=Cc1ccc(N2CCCC2)cc1 ?
Outgoing: 6.57

Incoming: Under E3 ubiquitin-protein ligase TRIM33 (Homo sapiens): pIC50 value of Cc1nc(-c2nc3ccccn3c2NCc2ccc(C#N)cc2)c[nH]1 ?
Outgoing: 4.57

Incoming: Under E3 ubiquitin-protein ligase TRIM33 (Homo sapiens): pIC50 value of O=Cc1cccc(-c2ccc(C(=O)O)cc2)c1 ?
Outgoing: 6.47

Incoming: Under E3 ubiquitin-protein ligase TRIM33 (Homo sapiens): pIC50 value of Cc1nc(-c2nc3cnccn3c2NCCN2CCOCC2)c[nH]1 ?
Outgoing: 3.88

Incoming: Under E3 ubiquitin-protein ligase TRIM33 (Homo sapiens): pIC50 value of COCCNc1c(-c2nc[nH]c2C)nc2cnccn12 ?
Outgoing: 3.69

Incoming: Under E3 ubiquitin-protein ligase TRIM33 (Homo sapiens): pIC50 value of CCCOc1ccn2c(C(C)=O)cc(-c3nc4ccc(C(=O)OC)cn4c3Nc3ccc(OC)cc3)c2c1 ?
Outgoing: 4.31
